# Tested on: Escherichia coli TOP10
# Experimental protocol: shrunken log2 fold change of peptide-encoding DNA abundance (4.5 h post-induction vs induction); higher = less antimicrobial activity (less host growth inhibition)
# Experimental context: time post-induction: 4.5 h; library: site-saturation at positions 5, 18, 19, 20
Please use True whenever shrunken log2 fold change is not below 0.02, and False whenever it is.

sequence_content=RRIRERPPRLPRPRPRPVSHPRP tested_system="Escherichia coli TOP10" classification=False
sequence_content=RRIRKRPPRLPRPRPRPDSCPRP tested_system="Escherichia coli TOP10" classification=False
sequence_content=RRIRPRPPRLPRPRPRPKMAPRP tested_system="Escherichia coli TOP10" classification=False
sequence_content=RRIRCRPPRLPRPRPRPYVFPRP tested_system="Escherichia coli TOP10" classification=False
sequence_content=RRIRDRPPRLPRPRPRPASSPRP tested_system="Escherichia coli TOP10" classification=True
sequence_content=RRIRERPPRLPRPRPRPDSCPRP tested_system="Escherichia coli TOP10" classification=False
sequence_content=RRIRNRPPRLPRPRPRPTGGPRP tested_system="Escherichia coli TOP10" classification=True
sequence_content=RRIRARPPRLPRPRPRPVQTPRP tested_system="Escherichia coli TOP10" classification=True

====

# Tested on: Escherichia coli TOP10;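 further: peptides expressed intracellularly from a pBAD plasmid library in pooled LB shake-flask culture, induced with 0.3% L-arabinose, DNA abundance read by NGS, three biological replicates, DESeq2 with apeglm shrinkage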
# Experimental protocol: shrunken log2 fold change of peptide-encoding DNA abundance (4.5 h post-induction vs induction); higher = less antimicrobial activity (less host growth inhibition)
# Experimental context: time post-induction: 4.5 h; library: site-saturation at positions 5, 18, 19, 20
So basically every entry gets a class from its shrunken log2 fold change, ranges being zone 1 (below -0.09), zone 2 (-0.09 to below 0.1), zone 3 (0.1 or more)

sequence_content=RRIRIRPPRLPRPRPRPSSDPRP tested_system="Escherichia coli TOP10" classification="zone 2"
sequence_content=RRIRRRPPRLPRPRPRPSAHPRP tested_system="Escherichia coli TOP10" classification="zone 2"
sequence_content=RRIRMRPPRLPRPRPRPCGSPRP tested_system="Escherichia coli TOP10" classification="zone 2"
sequence_content=RRIRDRPPRLPRPRPRPQLLPRP tested_system="Escherichia coli TOP10" classification="zone 3"
sequence_content=RRIRRRPPRLPRPRPRPFSGPRP tested_system="Escherichia coli TOP10" classification="zone 1"
sequence_content=RRIRLRPPRLPRPRPRPIYFPRP tested_system="Escherichia coli TOP10" classification="zone 1"
sequence_content=RRIRTRPPRLPRPRPRPEEAPRP tested_system="Escherichia coli TOP10" classification="zone 1"
sequence_content=RRIRIRPPRLPRPRPRPFQHPRP tested_system="Escherichia coli TOP10" classification="zone 1"
sequence_content=RRIRVRPPRLPRPRPRPFDLPRP tested_system="Escherichia coli TOP10" classification="zone 1"
sequence_content=RRIRIRPPRLPRPRPRPKGWPRP tested_system="Escherichia coli TOP10" classification="zone 3"
sequence_content=RRIRDRPPRLPRPRPRPGMFPRP tested_system="Escherichia coli TOP10" classification="zone 2"
sequence_content=RRIRPRPPRLPRPRPRPLQAPRP tested_system="Escherichia coli TOP10" classification="zone 3"
sequence_content=RRIRGRPPRLPRPRPRPMKPPRP tested_system="Escherichia coli TOP10" classification="zone 3"
sequence_content=RRIRSRPPRLPRPRPRPDFQPRP tested_system="Escherichia coli TOP10" classification="zone 2"
